Readings of AUC(0-inf) for the listed molecules
Assay: Pharmacokinetics (PK) in SD rats
Format: in vivo
Conditions: SD, plasma; rat, intravenous injection, 1 mg/kg
Answer in ng·h/mL, number only, no unit symbol.

The examples below pair each entry with its known result.
# molecule, unit_symbol, AUC(0-inf)
data = [
    ("COc1ccc(CNc2nc(N3CCC4(CC4)C3)ncc2C(=O)NCCN2CCN(C)CC2)cc1Cl", "ng·h/mL", 214),
    ("COc1ccc(CNc2nc(N3CCC4(CC4)C3)ncc2C(=O)NCc2ncccn2)cc1Cl", "ng·h/mL", 188),
    ("COc1ccc(CNc2nc(N3CC4CC4C3)ncc2C(=O)N[C@H]2CC[C@H](O)CC2)cc1Cl (some centres unmarked)", "ng·h/mL", 858),
    ("COc1ccc(CNc2nc(N3CC4CC4C3)ncc2C(=O)NCc2ccccn2)cc1Cl (centres unmarked)", "ng·h/mL", 219),
]

Read the next record carefully.
What the record says about COc1ccc(CNc2nc(N3Cc4cccnc4C3)ncc2C(=O)N[C@H]2CC[C@H](O)CC2)cc1Cl [WO-93, reference compound] : AUC(0-inf) is 709

---

In this section we review reported Cl_obs values for a set of compounds.
Test: Pharmacokinetics (PK) in SD rats
Type: in vivo
Conditions: rat, intravenous injection, 1 mg/kg
Numbers only here, please. The scale is mL/min/kg.

# compound, endpoint_label, measured_value
data = [
    ("COc1ccc(CNc2nc(N3CCC4(CC4)C3)ncc2C(=O)NCCN2CCN(C)CC2)cc1Cl [Compound 46]", "Cl_obs", 79),
]

Briefly, Cl_obs measured for COc1ccc(CNc2nc(N3CCC4(CCC4)CC3)ncc2C(=O)NCc2ncccn2)cc1Cl [Compound 14] : 71

Data point: COc1ccc(CNc2nc(N3CC4CC4C3)ncc2C(=O)N[C@H]2CC[C@H](O)CC2)cc1Cl (some centres unmarked) [Compound 11] ; Cl_obs = 19.7

Cl_obs in this record for COc1ccc(CNc2nc(N3CCC4(CC4)C3)ncc2C(=O)NCc2ncccn2)cc1Cl [Compound 41] : 89.2

---

Parameter: Tmax. Scope: all listed entries.
Assay: Pharmacokinetics (PK) in SD rats
Format: in vivo
Settings: SD, plasma, po; rat, intragastric administration, 5 mg/kg
State just the number; it will be interpreted in h.

Examples with their reported Tmax follow.
# molecule, measured_value
records = [
    ("CCOc1ccc(CNc2nc(N3CC4CC4C3)ncc2C(=O)N[C@H]2CC[C@H](O)CC2)cc1C(F)(F)F (stereo partly shown)", 4),
    ("CCOc1ccc(CNc2nc(N3CC4CC4C3)ncc2C(=O)N[C@H]2CC[C@H](O)CC2)cc1Cl (stereo partly shown)", 6),
]

Memo: COc1ccc(CNc2nc(N3CC4CC4C3)ncc2C(=O)N[C@H]2CC[C@H](O)CC2)cc1C (stereo partly shown) , reported Tmax: 6

---

// reported Cmax per item
Experiment: Pharmacokinetics (PK) in SD rats
Assay type: in vivo
Details: SD, plasma, po; rat, intragastric administration, 1 mg/kg
Reply numerically in ng/mL, unit not repeated.

# compound, Cmax [ng/mL]
data = [
    ("COc1ccc(CNc2nc(N3CCC[C@H]3CO)ncc2C(=O)N[C@H]2CC[C@H](O)CC2)cc1Cl [WO-88, reference compound]", 29),
    ("COc1ccc(CNc2nc(N3Cc4cccnc4C3)ncc2C(=O)N[C@H]2CC[C@H](O)CC2)cc1Cl [WO-93, reference compound]", 15),
    ("COc1ccc(CNc2nc(N3CC4CC4C3)ncc2C(=O)N[C@H]2CC[C@H](O)CC2)cc1Cl (stereo partly shown) [Compound 11]", 133),
]

--- query ---
# Cmax of COc1ccc(CNc2nc(N3CCC4(CCC4)CC3)ncc2C(=O)NCc2ncccn2)cc1Cl [Compound 14] = 5.2

---

Assay: Pharmacokinetics (PK) in SD rats
Assay type: in vivo
Details: SD, plasma; rat, intravenous injection, 2 mg/kg
Binary call on half-life: YES from 4 h upward, NO beneath that.

# compound, label
data = [
    ("COc1ccc(CNc2nc(N3CC4CC4C3)ncc2C(=O)N[C@H]2CC[C@H](O)CC2)cc1F (stereo partly shown) [Compound 48]", "YES"),
]

Consider now this further compound.
// query Decide: is the reported value of half-life for CCOc1ccc(CNc2nc(N3CC4CC4C3)ncc2C(=O)N[C@H]2CC[C@H](O)CC2)cc1C (stereo partly shown) [Compound 51] equal to or greater than 4 h?
// result YES

---

Experiment: Pharmacokinetics (PK) in SD rats
Format: in vivo
Details: SD, plasma; rat, intravenous injection, 1 mg/kg
Recorded half-life by entry
Expressed in h, but write only the number.

Kindly note the recorded half-life for COc1ccc(CNc2nc(N3CCC4(CC4)C3)ncc2C(=O)N[C@H]2CC[C@H](O)CC2)cc1Cl [Compound 38] , which is 3.5

half-life reading for COc1ccc(CNc2nc(N3CCC4(CC4)C3)ncc2C(=O)N[C@H]2CC[C@H](O)CC2)cc1Cl (stereo in doubt) [Compound 43] : 1.3

Per the records, this molecule ( COc1ccc(CNc2nc(N3Cc4cccnc4C3)ncc2C(=O)N[C@H]2CC[C@H](O)CC2)cc1Cl [WO-93, reference compound] ) has half-life equal to 2.6

---

Target: PDE-5 enzyme (human blood platelets) (Homo sapiens (Human), UniProt O76074)
Experiment: PDE-5 enzyme assay, [3H]cGMP
Assay type: biochemical
Conditions: Table 4-1; read-out: PDE-5 (IC50 nM)
endpoint_label: IC50 (nM)
The response must be a number in nM with no trailing unit.

A selection of reference data follows.
# compound, measured_value
records = [
    ("COc1ccc(CNc2nc(N3CCC4(CC4)C3)ncc2C(=O)N[C@H]2CC[C@H](O)CC2)cc1Cl", 0.8),
    ("COc1ccc(CNc2nc(N3CC4CC4C3)ncc2C(=O)N[C@H]2CC[C@H](O)CC2)cc1Cl (some centres unmarked)", 0.41),
    ("COc1ccc(CNc2nc(N3CC4CC4C3)ncc2C(=O)N[C@H]2CC[C@H](O)CC2)cc1C (some centres unmarked)", 7.72),
]

Reported IC50 for COc1ccc(CNc2nc(N3CCC4(CC4)C3)ncc2C(=O)NCCN2CCN(C)CC2)cc1Cl was 0.31

The measured IC50 associated with COc1ccc(CNc2nc(N3CC4CC4C3)ncc2C(=O)N[C@H]2CC[C@H](O)CC2)cc1F (some centres unmarked) reads 7.99

---

Experiment: Pharmacokinetics (PK) in SD rats
Type: in vivo
Conditions: rat, intravenous injection, 1 mg/kg
Param label: returns criterion met when Vss_obs < 10 L/kg, returns criterion not met otherwise, including exact equality.

The following compounds have reported results that may help.
# compound, label
rows = [
    ("COc1ccc(CNc2nc(N3CCC4(CC4)C3)ncc2C(=O)NCc2ccccn2)cc1Cl", "criterion not met"),
    ("COc1ccc(CNc2nc(N3Cc4cccnc4C3)ncc2C(=O)N[C@H]2CC[C@H](O)CC2)cc1Cl [WO-93, reference compound]", "criterion met"),
    ("COc1ccc(CNc2nc(N3CCC4(CCC4)CC3)ncc2C(=O)NCc2ncccn2)cc1Cl", "criterion met"),
]

// query Does the reported Vss_obs of COc1ccc(CNc2nc(N3CCC4(CC4)C3)ncc2C(=O)N[C@H]2CC[C@H](O)CC2)cc1Cl [Compound 38] stay below 10 L/kg?
// result criterion met

// query Below 10 L/kg on Vss_obs? Entry COc1ccc(CNc2nc(N3CC4CC4C3CO)ncc2C(=O)NCc2ccccc2)cc1Cl (centres unmarked)
// result criterion not met

// query Hi there! Is Vss_obs for COc1ccc(CNc2nc(N3CCC[C@H]3CO)ncc2C(=O)N[C@H]2CC[C@H](O)CC2)cc1Cl [WO-88, reference compound] below 10 L/kg, do you know?
// result criterion met

// query In plain terms, does COc1ccc(CNc2nc(N3CC4CC4C3)ncc2C(=O)N[C@H]2CC[C@H](O)CC2)cc1Cl (some centres unmarked) come in under 10 L/kg for Vss_obs?
// result criterion met

---

Assay: Pharmacokinetics (PK) in SD rats
Type: in vivo
Settings: SD, plasma; rat, intravenous injection, 2 mg/kg
Reported log10(AUC(0-inf)) values follow for various molecules
Hey, these are logged values: log10 of AUC(0-inf), ng·h/mL being the unit before logging.

Completed entries (count: 2):
# molecule, log10(AUC(0-inf))
measured = [
    ("CCOc1ccc(CNc2nc(N3CC4CC4C3)ncc2C(=O)N[C@H]2CC[C@H](O)CC2)cc1C (some centres unmarked) [Compound 51]", 3.64),
    ("COc1ccc(CNc2nc(N3CC4CC4C3)ncc2C(=O)N[C@H]2CC[C@H](O)CC2)cc1C(F)(F)F (some centres unmarked) [Compound 53]", 3.18),
]

Summary for this molecule, CCOc1ccc(CNc2nc(N3CC4CC4C3)ncc2C(=O)N[C@H]2CC[C@H](O)CC2)cc1F (some centres unmarked) [Compound 49] : log10(AUC(0-inf)) is 3.59

Lab book: log10(AUC(0-inf)) of COc1ccc(CNc2nc(N3CC4CC4C3)ncc2C(=O)N[C@H]2CC[C@H](O)CC2)cc1C (some centres unmarked) [Compound 50] noted as 3.41

log10(AUC(0-inf)) recorded for this molecule, CCOc1ccc(CNc2nc(N3CC4CC4C3)ncc2C(=O)N[C@H]2CC[C@H](O)CC2)cc1Cl (some centres unmarked) [Compound 52] , is 3.57

For record COc1ccc(CNc2nc(N3CC4CC4C3)ncc2C(=O)N[C@H]2CC[C@H](O)CC2)cc1F (some centres unmarked) [Compound 48] the listed log10(AUC(0-inf)) is 3.31

Per the record, CCOc1ccc(CNc2nc(N3CC4CC4C3)ncc2C(=O)N[C@H]2CC[C@H](O)CC2)cc1C(F)(F)F (some centres unmarked) [Compound 54] has log10(AUC(0-inf)) of 3.16

// sample COc1ccc(CN=c2[nH]c(N3CCC[C@H]3CO)ncc2C(=O)NCc2ncccn2)cc1Cl [Avanafil, reference compound] , its log10(AUC(0-inf)) was 2.58
